assay: Liver microsomal stability, rat; format: in vitro ADME; conditions: liver microsomes
reported-metric: remaining at 0.5 h, 1 µM
Could you write the number and then its unit?

{"smiles-notation": "COc1nc(-c2cc(C)c(N[C@@H](C)c3c(F)cc(F)cc3F)nn2)ccc1-n1cnc(C)c1", "remaining at 0.5 h, 1 µM": "100%"}
{"smiles-notation": "COc1nc(-c2cc(C)c(N[C@@H](C)c3cc(F)cc(F)c3)nn2)ccc1-n1cnc(C)c1", "remaining at 0.5 h, 1 µM": "76%"}

Then this molecule:
(Q) Dear colleague, I am looking for the recorded remaining at 0.5 h, 1 µM of the following molecule: COc1nc(-c2cc(C)c(N[C@@H](C)c3ccc(F)cc3)nn2)ccc1-n1cnc(C)c1
(A) 84%

---

assay: Single-dose i.v./po PK in male CD-1 mice; assay type: in vivo, mouse; conditions: male, CD-1, mouse, plasma, iv, 1 mg/kg, Cl, male CD-1 mice
reported-metric: clearance (L/h/kg)
Could you give me the number in L/h/kg? Just the number is fine.

(Q) Any idea what clearance was measured for COc1nc(-c2cc(C)c(N[C@@H](C)c3cc(F)cc(F)c3)nn2)ccc1-n1cnc(C)c1 ?
(A) 0.483
